Hello, the source for this data is ChEMBL document CHEMBL3352013, in case you need it.

Hi there, I'd appreciate the recorded Activity for every entry that follows.
target: Mitogen-activated protein kinase 9 (Homo sapiens) (UniProt P45984); test: Inhibition of JNK2 (unknown origin) assessed as residual enzyme activity at 10 uM
Sequence (P45984 whole entry, looked up): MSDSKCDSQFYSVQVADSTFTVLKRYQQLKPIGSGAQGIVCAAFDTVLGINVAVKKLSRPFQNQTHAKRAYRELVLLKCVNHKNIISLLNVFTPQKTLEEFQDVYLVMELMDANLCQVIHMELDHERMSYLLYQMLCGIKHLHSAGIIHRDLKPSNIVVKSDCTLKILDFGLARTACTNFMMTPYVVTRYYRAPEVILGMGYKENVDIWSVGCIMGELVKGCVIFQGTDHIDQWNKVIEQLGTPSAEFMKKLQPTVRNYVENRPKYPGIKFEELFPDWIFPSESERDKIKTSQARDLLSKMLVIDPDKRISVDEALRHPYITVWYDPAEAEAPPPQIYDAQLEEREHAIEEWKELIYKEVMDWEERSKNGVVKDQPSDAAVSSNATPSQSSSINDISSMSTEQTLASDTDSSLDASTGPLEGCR
Give bare numbers, in %.

Known results for compounds:
{"Test smiles": "COc1cccc(OC)c1C(=O)Nc1c[nH]nc1C(=O)NCc1ccccc1", "Assay value": 63}
{"Test smiles": "CO[C@H]1CC[C@H](NC(=O)c2n[nH]cc2NC(=O)c2ccc(-c3ccccc3)o2)CC1", "Assay value": 15}
{"Test smiles": "CO[C@H]1CC[C@H](NC(=O)c2n[nH]cc2NC(=O)c2ccccc2)CC1", "Assay value": 51}

Task: // returns reported Activity for input COc1cccc(OC)c1C(=O)Nc1c[nH]nc1C(=O)N[C@H]1CC[C@H](OC)CC1
Output: 82

---

biological target: Mitogen-activated protein kinase 8 (Homo sapiens) (UniProt P45983); experiment: Inhibition of JNK1 (unknown origin) assessed as residual enzyme activity at 10 uM
Sequence (P45983 whole entry): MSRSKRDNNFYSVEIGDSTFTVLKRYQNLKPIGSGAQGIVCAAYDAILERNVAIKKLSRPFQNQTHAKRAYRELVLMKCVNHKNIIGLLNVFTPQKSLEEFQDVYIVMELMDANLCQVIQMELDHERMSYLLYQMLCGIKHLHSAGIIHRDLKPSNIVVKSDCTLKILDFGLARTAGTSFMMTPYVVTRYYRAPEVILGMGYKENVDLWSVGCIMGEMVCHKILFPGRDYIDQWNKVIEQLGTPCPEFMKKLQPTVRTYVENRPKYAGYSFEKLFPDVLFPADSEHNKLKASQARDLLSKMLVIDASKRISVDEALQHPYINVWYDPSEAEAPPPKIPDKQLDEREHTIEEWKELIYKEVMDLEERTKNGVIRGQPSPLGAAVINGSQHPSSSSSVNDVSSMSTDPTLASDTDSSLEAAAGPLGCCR
Metric name: Activity
Returns: string containing the number followed by the unit.

{"Test smiles": "COc1cccc(OC)c1C(=O)Nc1c[nH]nc1C(=O)N[C@H]1CC[C@H](OC)CC1", "System under test": "Mitogen-activated protein kinase 8 (Homo sapiens) (UniProt P45983)", "Activity": "77%"}
{"Test smiles": "COc1cccc(OC)c1C(=O)Nc1c[nH]nc1C(=O)NCc1ccccc1", "System under test": "Mitogen-activated protein kinase 8 (Homo sapiens) (UniProt P45983)", "Activity": "71%"}
{"Test smiles": "CO[C@H]1CC[C@H](NC(=O)c2n[nH]cc2NC(=O)c2ccccc2)CC1", "System under test": "Mitogen-activated protein kinase 8 (Homo sapiens) (UniProt P45983)", "Activity": "31%"}

Task: Recorded Activity for CO[C@H]1CC[C@H](NC(=O)c2n[nH]cc2NC(=O)c2ccc(-c3ccccc3)o2)CC1 , please?
Output: 8%

---

target: Dual specificity mitogen-activated protein kinase kinase 1 (Homo sapiens) (UniProt Q02750); test: Inhibition of MKK1 (unknown origin) assessed as residual enzyme activity at 10 uM
Sequence (Q02750 whole entry): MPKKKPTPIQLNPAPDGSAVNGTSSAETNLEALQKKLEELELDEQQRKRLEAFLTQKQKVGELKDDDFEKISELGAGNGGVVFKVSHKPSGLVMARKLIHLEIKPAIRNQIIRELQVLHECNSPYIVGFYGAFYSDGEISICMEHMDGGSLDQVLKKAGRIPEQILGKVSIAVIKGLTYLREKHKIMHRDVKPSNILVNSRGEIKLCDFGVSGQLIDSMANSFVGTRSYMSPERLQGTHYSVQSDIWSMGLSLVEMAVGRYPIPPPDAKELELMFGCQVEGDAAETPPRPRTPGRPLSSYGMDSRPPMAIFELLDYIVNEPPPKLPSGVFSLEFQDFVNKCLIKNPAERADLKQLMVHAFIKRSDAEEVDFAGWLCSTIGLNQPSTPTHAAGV
Please go through the items and note down their Activity.
One number for each entry, in %.

{"Test smiles": "COc1cccc(OC)c1C(=O)Nc1c[nH]nc1C(=O)NCc1ccccc1", "System under test": "Dual specificity mitogen-activated protein kinase kinase 1 (Homo sapiens) (UniProt Q02750)", "Assay value": 76}
{"Test smiles": "CO[C@H]1CC[C@H](NC(=O)c2n[nH]cc2NC(=O)c2ccc(-c3ccccc3)o2)CC1", "System under test": "Dual specificity mitogen-activated protein kinase kinase 1 (Homo sapiens) (UniProt Q02750)", "Assay value": 17}
{"Test smiles": "COc1cccc(OC)c1C(=O)Nc1c[nH]nc1C(=O)N[C@H]1CC[C@H](OC)CC1", "System under test": "Dual specificity mitogen-activated protein kinase kinase 1 (Homo sapiens) (UniProt Q02750)", "Assay value": 83}

Now look at this entry.
Task: Form field: reported Activity of CO[C@H]1CC[C@H](NC(=O)c2n[nH]cc2NC(=O)c2ccccc2)CC1
Output: 54

---

Please go through the items and note down their Activity.
target: Dual specificity tyrosine-phosphorylation-regulated kinase 3 (Homo sapiens) (UniProt O43781); assay: Inhibition of DYRK3 (unknown origin) assessed as residual enzyme activity at 10 uM
Sequence (O43781 whole entry): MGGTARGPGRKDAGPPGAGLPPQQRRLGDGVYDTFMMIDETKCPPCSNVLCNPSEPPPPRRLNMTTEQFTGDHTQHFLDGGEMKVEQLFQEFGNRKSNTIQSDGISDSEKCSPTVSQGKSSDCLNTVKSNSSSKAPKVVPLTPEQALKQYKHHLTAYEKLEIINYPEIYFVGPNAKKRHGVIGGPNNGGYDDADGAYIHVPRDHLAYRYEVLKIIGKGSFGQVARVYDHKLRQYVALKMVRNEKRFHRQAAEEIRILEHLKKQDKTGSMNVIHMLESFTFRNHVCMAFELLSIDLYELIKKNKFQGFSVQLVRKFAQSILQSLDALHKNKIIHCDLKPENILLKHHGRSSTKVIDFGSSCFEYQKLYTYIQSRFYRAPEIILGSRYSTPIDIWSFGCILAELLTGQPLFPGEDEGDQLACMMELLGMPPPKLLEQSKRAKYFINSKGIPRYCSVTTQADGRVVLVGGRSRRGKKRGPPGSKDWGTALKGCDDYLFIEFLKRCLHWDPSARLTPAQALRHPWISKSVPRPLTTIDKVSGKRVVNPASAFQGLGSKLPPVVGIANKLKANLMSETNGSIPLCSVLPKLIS
One number for each entry, in %.

{"Test smiles": "COc1cccc(OC)c1C(=O)Nc1c[nH]nc1C(=O)NCc1ccccc1", "Assay value": 80}
{"Test smiles": "CO[C@H]1CC[C@H](NC(=O)c2n[nH]cc2NC(=O)c2ccc(-c3ccccc3)o2)CC1", "Assay value": 2}

State recorded Activity for all listed compounds.
1. CO[C@H]1CC[C@H](NC(=O)c2n[nH]cc2NC(=O)c2ccccc2)CC1
2. COc1cccc(OC)c1C(=O)Nc1c[nH]nc1C(=O)N[C@H]1CC[C@H](OC)CC1

Output:
1. 24
2. 100
